- Tested on: Acyl-CoA:cholesterol acyl transferase (ACAT)
- assay.text: Acyl-CoA:cholesterol acyl transferase (ACAT) inhibiting activity
- Type: biochemical, male Sprague-Dawley rats
- Design: tested at 1 µM
- assay.conditions: inhibition of labeled cholesterol ester formation at 10⁻⁶ M of the test compounds; small intestine mucosa microsome fraction
recorded.metric: % ACAT inhibition (%)
State just the number; it will be interpreted in %.

>  <molecule>
COc1cc(CN(C(=O)Nc2ccc(F)cc2F)C2Cc3ccccc3C2)c(OC)c(C)c1C [Example 35]

>  <number>
58

$$$$
>  <molecule>
Cc1ccc(CN(C(=O)Nc2ccc(F)cc2F)C2Cc3ccccc3C2)c(C)c1 [Example 15]

>  <number>
88

$$$$
>  <molecule>
Cc1cccc(CN(C(=O)Nc2ccc(F)cc2F)C2Cc3ccccc3C2)c1 [Example 11]

>  <number>
64

$$$$
>  <molecule>
O=C(Nc1ccc(F)cc1F)N(Cc1cccs1)C1Cc2ccccc2C1 [Example 23]

>  <number>
57

$$$$

Query: Suppose we examine the molecule COc1cc(CN(C(=O)Nc2ccc(F)cc2F)C2CCCc3ccccc32)cc(OC)c1O (stereo not drawn) [Example 61] ; what % ACAT inhibition value has been reported?
Reply: 53

Query: Then this molecule: CCC(c1ccccc1)N(C(=O)Nc1ccc(F)cc1F)C1Cc2ccccc2C1 (stereo not drawn) [Example 7]
Reply: 72

Query: Then this molecule: O=C(Nc1ccc(F)cc1F)N(Cc1ccccc1)C1CCCCc2ccccc21 (stereo not drawn) [Example 59]
Reply: 80

* * *

- Tested on: Acyl-CoA:cholesterol acyl transferase (ACAT)
- assay.text: Acyl-CoA:cholesterol acyl transferase (ACAT) inhibiting activity
- Assay type: biochemical, male Sprague-Dawley rats
- Parameters: tested at 1 µM
- assay.conditions: inhibition of labeled cholesterol ester formation at 10⁻⁶ M of the test compounds; small intestine mucosa microsome fraction
Param threshold (80%) applies to % ACAT inhibition; output YES when value >= threshold, NO when value < threshold.

Example results:
>  <compound>
Cc1cc(C)c2c(c1)CC(N(Cc1ccccc1)C(=O)Nc1ccc(F)cc1F)C2 (centres unmarked) [Example 27]

>  <assayed.target>
Acyl-CoA:cholesterol acyl transferase (ACAT)

>  <assigned.class>
NO

$$$$
>  <compound>
COc1cc(CN(C(=O)Nc2ccc(F)cc2F)C2Cc3ccccc3C2)ccc1O [Example 33]

>  <assayed.target>
Acyl-CoA:cholesterol acyl transferase (ACAT)

>  <assigned.class>
NO

$$$$
>  <compound>
Cc1ccccc1CN(C(=O)Nc1ccc(F)cc1F)C1Cc2ccccc2C1 [Example 10]

>  <assayed.target>
Acyl-CoA:cholesterol acyl transferase (ACAT)

>  <assigned.class>
NO

$$$$

Continue with the next compound.
Query: % ACAT inhibition >= 80% for Cc1cc(O)c(C(C)C)cc1CN(C(=O)Nc1ccc(F)cc1F)C1Cc2ccccc2C1 [Example 45] ?
Reply: YES

* * *

- Test system: Acyl-CoA:cholesterol acyl transferase (ACAT)
- assay.text: Acyl-CoA:cholesterol acyl transferase (ACAT) inhibiting activity
- Assay type: biochemical, male Sprague-Dawley rats
- Design: tested at 1 µM
- assay.conditions: inhibition of labeled cholesterol ester formation at 10⁻⁶ M of the test compounds; small intestine mucosa microsome fraction
Listing: % ACAT inhibition of selected molecules
State just the number; it will be interpreted in %.

Worked examples follow.
>  <molecule>
Cc1cc(O)c(C(C)(C)C)cc1CN(C(=O)Nc1ccc(F)cc1F)C1Cc2ccccc2C1 [Example 41]

>  <% ACAT inhibition (%)>
95

$$$$
>  <molecule>
CC(C)c1cc(CN(C(=O)Nc2ccc(F)cc2F)C2Cc3ccccc3C2)cc(C(C)C)c1O [Example 40]

>  <% ACAT inhibition (%)>
83

$$$$
>  <molecule>
O=C(Nc1ccc(F)cc1F)N(Cc1ccccc1)C1CCCc2ccccc21 (centres unmarked) [Example 58]

>  <% ACAT inhibition (%)>
94

$$$$
>  <molecule>
O=C(Nc1ccc(F)cc1F)N(Cc1ccccc1)C1CCCc2ccccc2C1 (centres unmarked) [Example 49]

>  <% ACAT inhibition (%)>
89

$$$$

Please find the next molecule below.
Query: Suppose we examine the molecule COc1cc(C)c(CN(C(=O)Nc2ccc(F)cc2F)C2Cc3ccccc3C2)cc1C [Example 36] ; what % ACAT inhibition value has been reported?
Reply: 72

* * *

- Test system: Acyl-CoA:cholesterol acyl transferase (ACAT)
- assay.text: Acyl-CoA:cholesterol acyl transferase (ACAT) inhibiting activity
- Format: biochemical, male Sprague-Dawley rats
- Parameters: tested at 1 µM
- assay.conditions: inhibition of labeled cholesterol ester formation at 10⁻⁶ M of the test compounds; small intestine mucosa microsome fraction
recorded.metric: % ACAT inhibition (%)
State just the number; it will be interpreted in %.

Worked examples follow.
>  <molecule>
O=C(Nc1ccc(F)cc1F)N(CC1CCCCC1)C1Cc2ccccc2C1

>  <% ACAT inhibition / %>
60

$$$$
>  <molecule>
COc1cc(CN(C(=O)Nc2ccc(F)cc2F)C2CCCCc3ccccc32)cc(OC)c1O (centres unmarked)

>  <% ACAT inhibition / %>
69

$$$$
>  <molecule>
COc1cc(CN(C(=O)Nc2ccc(F)cc2F)C2CCc3ccccc32)cc(OC)c1O (centres unmarked)

>  <% ACAT inhibition / %>
83

$$$$
>  <molecule>
Cc1cc(O)c(C(C)(C)C)cc1CN(C(=O)Nc1ccc(F)cc1F)C1CCCc2ccccc2C1 (centres unmarked)

>  <% ACAT inhibition / %>
85

$$$$
>  <molecule>
Cc1ccc(CN(C(=O)Nc2ccc(F)cc2F)C2Cc3ccccc3C2)cc1

>  <% ACAT inhibition / %>
77

$$$$

Query: Suppose we examine the molecule O=C(Nc1ccc(F)cc1F)N(Cc1ccccc1Cl)C1Cc2ccccc2C1 ; what % ACAT inhibition value has been reported?
Reply: 84

Query: Then this molecule: Cc1cc(CN(C(=O)Nc2ccc(F)cc2F)C2Cc3ccccc3C2)c(C)c(C)c1O
Reply: 89

Query: Then this molecule: COc1cc(CN(C(=O)Nc2ccc(F)cc2F)C2Cc3ccccc3C2)cc(OC)c1OC
Reply: 55

Query: Then this molecule: O=C(Nc1ccc(F)cc1F)N(Cc1ccccc1)C1Cc2ccccc2C1
Reply: 65

Query: Then this molecule: CC(C)c1ccc(CN(C(=O)Nc2ccc(F)cc2F)C2Cc3ccccc3C2)cc1
Reply: 86

Query: Then this molecule: CC(C)(C)c1cc(CN(C(=O)Nc2ccc(F)cc2F)C2Cc3ccccc3C2)cc(C(C)(C)C)c1O
Reply: 62

Query: Then this molecule: O=C(Nc1ccc(F)cc1F)N(Cc1ccc(Cl)cc1)C1Cc2ccccc2C1
Reply: 76

Query: Then this molecule: Cc1ccc(C)c(CN(C(=O)Nc2ccc(F)cc2F)C2Cc3ccccc3C2)c1
Reply: 86

Query: Then this molecule: Cc1cc(CN(C(=O)Nc2ccc(F)cc2F)C2Cc3ccccc3C2)c(C(C)C)cc1O
Reply: 77

Query: Then this molecule: CC(c1ccccc1)N(C(=O)Nc1ccc(F)cc1F)C1Cc2ccccc2C1 (centres unmarked)
Reply: 80

Query: Then this molecule: COc1ccc(OC)c2c1CC(N(Cc1ccccc1)C(=O)Nc1ccc(F)cc1F)C2
Reply: 56

Query: Then this molecule: O=C(Nc1ccc(F)cc1F)N(Cc1ccccc1)C1CCc2ccccc21 (centres unmarked)
Reply: 84

Query: Then this molecule: COc1ccccc1CN(C(=O)Nc1ccc(F)cc1F)C1Cc2ccccc2C1
Reply: 55

Query: Then this molecule: COc1ccc(CN(C(=O)Nc2ccc(F)cc2F)C2Cc3ccccc3C2)c(OC)c1
Reply: 72

Query: Then this molecule: Cc1cc(CN(C(=O)Nc2ccc(F)cc2F)C2Cc3ccccc3C2)c(C)cc1O
Reply: 93

Query: Then this molecule: O=C(Nc1ccc(F)cc1F)N(C1Cc2ccccc2C1)C(c1ccccc1)c1ccccc1
Reply: 53

Query: Then this molecule: Cc1cc(C)c(CN(C(=O)Nc2ccc(F)cc2F)C2Cc3ccccc3C2)c(C)c1
Reply: 75

Query: Then this molecule: O=C(Nc1ccc(F)cc1F)N(Cc1ccccc1)C1CCc2ccccc2C1 (centres unmarked)
Reply: 63
